System: ABC-1
Assay: Cell Viability Assay (CellTiter-Glo)
Type: cell-based
Settings: 10 μM, 5 days
Flag rule - Normalized viability % DMSO less than 10 % DMSO flags criterion met; the remaining entries get criterion not met.

>>> qualitative_label("CCc1onc(C)c1CNC(=O)[C@@H]1C[C@@H](O)CN1C(=O)[C@@H](n1cc(C2CC2)nn1)C(C)(C)C")
"criterion met"
>>> qualitative_label("CNC(=O)[C@@H]1C[C@@H](O)CN1C(=O)[C@@H](n1cc(-c2cnc(F)cc2C)nn1)C(C)(C)C")
"criterion not met"
>>> qualitative_label("Cc1ncsc1-c1ccc(CNC(=O)[C@@H]2C[C@@H](O)CN2C(=O)[C@@H](n2cc(C3CC3)nn2)C(C)(C)C)cc1")
"criterion met"
>>> qualitative_label("CC(C)(C)[C@@H](C(=O)N1C[C@H](O)C[C@H]1C(=O)NCCCn1cnc2c(N)ncnc21)n1cc(C2CC2)nn1")
"criterion met"
>>> qualitative_label("CC(C)(NC(=O)[C@@H]1C[C@@H](O)CN1C(=O)[C@@H](n1cc(C2CC2)nn1)C(C)(C)C)C(=O)Nc1ccccc1")
"criterion not met"
>>> qualitative_label("CC(C)(C)[C@@H](C(=O)N1C[C@H](O)C[C@H]1C(=O)NC(CO)c1ccc(Br)c(F)c1)n1cc(C2CC2)nn1 (stereo partly drawn)")
"criterion not met"
